The values you see were collected from ChEMBL document CHEMBL1961873.

- assayed target: Serine/threonine-protein kinase D3 (Homo sapiens) (UniProt O94806);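 also: values are mean inhibition figures against PRKD3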
- Sequence (O94806 whole entry): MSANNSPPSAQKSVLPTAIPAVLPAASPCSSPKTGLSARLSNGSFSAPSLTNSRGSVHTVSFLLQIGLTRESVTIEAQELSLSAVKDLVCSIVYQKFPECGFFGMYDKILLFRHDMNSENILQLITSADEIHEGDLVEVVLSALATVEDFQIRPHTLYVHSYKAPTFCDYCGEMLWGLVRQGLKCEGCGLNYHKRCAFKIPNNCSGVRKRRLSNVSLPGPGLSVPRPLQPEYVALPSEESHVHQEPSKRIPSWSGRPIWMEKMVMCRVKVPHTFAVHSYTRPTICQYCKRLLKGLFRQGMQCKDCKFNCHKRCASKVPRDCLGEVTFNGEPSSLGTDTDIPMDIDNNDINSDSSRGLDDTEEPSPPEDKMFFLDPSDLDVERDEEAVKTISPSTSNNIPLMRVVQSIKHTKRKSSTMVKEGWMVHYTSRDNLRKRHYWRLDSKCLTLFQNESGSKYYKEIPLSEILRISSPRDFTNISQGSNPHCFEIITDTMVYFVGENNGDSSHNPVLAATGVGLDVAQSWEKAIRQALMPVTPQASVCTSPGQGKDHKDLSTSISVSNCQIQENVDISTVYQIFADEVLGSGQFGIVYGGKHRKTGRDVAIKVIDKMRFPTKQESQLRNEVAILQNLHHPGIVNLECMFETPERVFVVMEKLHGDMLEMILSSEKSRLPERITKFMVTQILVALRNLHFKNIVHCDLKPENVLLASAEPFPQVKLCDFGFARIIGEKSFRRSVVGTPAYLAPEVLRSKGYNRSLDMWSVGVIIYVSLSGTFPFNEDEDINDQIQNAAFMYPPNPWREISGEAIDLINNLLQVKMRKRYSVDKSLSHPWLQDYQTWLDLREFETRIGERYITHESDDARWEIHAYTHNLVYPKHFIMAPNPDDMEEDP
- assay context: at 1 µM
Each item that follows carries a reported inhibition.
API: value field is a number in %; no unit string.

Recorded inhibition, per entry:
smiles: Cc1nnc(-c2ccc(C)c(-c3ccc(C(=O)NCc4ccc(Cl)cc4)cc3)c2)o1
u: %
inhibition: -0.1
--
smiles: COc1cc2ncn(-c3cc(OCc4ccccc4C(F)(F)F)c(C(C)=O)s3)c2cc1OC
u: %
inhibition: 3.23
--
smiles: CCc1ccc(Oc2nccc(-c3c(-c4ccc(F)cc4)ncn3C3CCNCC3)n2)cc1
u: %
inhibition: 9.71
--
smiles: C[C@@H](Oc1cc(-n2cnc3ccc(OC4CCN(C)CC4)cc32)sc1C(N)=O)c1ccccc1Cl
u: %
inhibition: 3.55
--
smiles: O=C(Nc1n[nH]c2nc(-c3ccco3)ccc12)C1CC1
u: %
inhibition: 1.55
--
smiles: O=C(Nc1ccc(Oc2ccc3[nH]c(NC(=O)c4ccccc4)nc3c2)cc1)Nc1cc(C(F)(F)F)ccc1F
u: %
inhibition: 3.63

For "Fc1ccc(-c2ncn(C3CCNCC3)c2-c2ccnc(Oc3ccc4c(c3)OCO4)n2)cc1" , what is its reported inhibition?
9.26

For "Fc1ccc(-c2nc3n(c2-c2ccncc2)CCS3)cc1" , what is its reported inhibition?
3.94

For "CCS(=O)(=O)c1ccc(OC)c(Nc2ncc(-c3ccccc3Cl)o2)c1" , what is its reported inhibition?
0.32

----------
- assayed target: cGMP-dependent protein kinase 2 (Homo sapiens) (UniProt Q13237)
- Sequence (whole entry): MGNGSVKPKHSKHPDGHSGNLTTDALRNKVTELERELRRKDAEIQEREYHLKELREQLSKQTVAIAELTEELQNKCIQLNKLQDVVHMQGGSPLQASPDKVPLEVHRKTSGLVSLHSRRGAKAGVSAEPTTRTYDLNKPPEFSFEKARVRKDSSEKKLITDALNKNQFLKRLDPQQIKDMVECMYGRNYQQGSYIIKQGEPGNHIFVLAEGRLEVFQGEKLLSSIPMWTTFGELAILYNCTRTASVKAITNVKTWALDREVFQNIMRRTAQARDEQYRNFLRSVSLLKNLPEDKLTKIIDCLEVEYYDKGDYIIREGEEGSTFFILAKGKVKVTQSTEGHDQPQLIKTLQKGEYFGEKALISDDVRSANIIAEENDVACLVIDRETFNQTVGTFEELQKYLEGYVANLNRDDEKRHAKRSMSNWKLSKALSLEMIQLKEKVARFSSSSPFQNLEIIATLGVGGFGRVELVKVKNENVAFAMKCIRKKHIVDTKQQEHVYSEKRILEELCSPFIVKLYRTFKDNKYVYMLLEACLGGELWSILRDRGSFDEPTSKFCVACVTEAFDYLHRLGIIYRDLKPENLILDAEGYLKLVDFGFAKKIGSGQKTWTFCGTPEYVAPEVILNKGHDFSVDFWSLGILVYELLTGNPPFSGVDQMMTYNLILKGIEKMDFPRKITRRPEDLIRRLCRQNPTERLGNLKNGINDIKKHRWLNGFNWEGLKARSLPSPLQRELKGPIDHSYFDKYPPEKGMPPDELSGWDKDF
- assay context: at 1 µM
Classify by measured inhibition: condition met if it is equal to or exceeds 6%, condition not met if it is smaller.

smiles: NCc1ccc(-n2c(-c3nonc3N)nc3cnccc32)cc1
assayed target: cGMP-dependent protein kinase 2 (Homo sapiens) (UniProt Q13237)
assigned label: condition met
--
smiles: COc1cc(N2CCN(C(C)C)CC2)ccc1Nc1nc(Nc2ccc(F)cc2C(=O)NC[C@@H](O)CO)c2cc[nH]c2n1
assayed target: cGMP-dependent protein kinase 2 (Homo sapiens) (UniProt Q13237)
assigned label: condition met
--
smiles: COc1ccc(C2=C(N3CCc4ccccc43)C(=O)NC2=O)cc1
assayed target: cGMP-dependent protein kinase 2 (Homo sapiens) (UniProt Q13237);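 also: mean inhibition of PRKG2 from the GSK PKIS screen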
assigned label: condition not met

Answer whether inhibition of "CN1CCN(CCCNc2nc3ccc(Oc4ccc(NC(=O)Nc5cc(C(F)(F)F)ccc5F)cc4)cc3[nH]2)CC1" is greater than or equal to 6%.
condition not met

Answer whether inhibition of "O=C(Nc1n[nH]c2cc(-c3cc(F)ccc3F)ccc12)C1CC1" is greater than or equal to 6%.
condition not met

Answer whether inhibition of "CS(=O)(=O)CCNCc1ccc(-c2ccc3ncnc(Nc4ccc(OCc5ccccc5)c(Br)c4)c3c2)o1" is greater than or equal to 6%.
condition not met

Answer whether inhibition of "C[C@@H](Oc1cc(-n2cnc3ccc(OCC4CCN(C)CC4)cc32)sc1C(N)=O)c1ccccc1Cl" is greater than or equal to 6%.
condition met

Answer whether inhibition of "Fc1ccc(-c2nc3n(c2-c2ccncc2)CCS3)cc1" is greater than or equal to 6%.
condition not met

Answer whether inhibition of "Cc1ccc(C(=O)NC2CCC2)cc1-c1ccc(C(=O)NCC2CC2)cc1" is greater than or equal to 6%.
condition not met
